These measurements were taken from paper PMC6136712.

System: normal esophageal epithelium cell line EACN42
Experiment: FDA library drug sensitivity testing (CellTiter-Glo, 72 h), normal control cells
Type: cell-based, human
Details: Homo sapiens, 72 h, EACN42 normal esophageal cells, cell viability (ATP), max test concentration 10μM
Structures can show the parent of a compound that is named as a salt.
I'd appreciate it if you could supply pEC50 values for the items below.
By convention, pEC50 is the negative base-10 log of a molar concentration.

Entry CCCCNC(=O)NS(=O)(=O)c1ccc(C)cc1 [Tolbutamide] : reported pEC50 = ?
7.22

Entry `CC(=O)O[C@H]1C(=O)[C@@]2(C)[C@H]([C@H](OC(=O)c3ccccc3)[C@]3(O)C[C@H](OC(=O)[C@H](O)[C@@H](NC(=O)c4ccccc4)c4ccccc4)C(C)=C1C3(C)C)[C@]1(OC(C)=O)CO[C@@H]1C[C@@H]2O` : reported pEC50 = ?
8.00

Entry `CCCCCOC(=O)Nc1nc(=O)n([C@@H]2O[C@H](C)[C@@H](O)[C@H]2O)cc1F` : reported pEC50 = ?
6.00

Entry `CO[C@H]1C[C@@H]2CC[C@@H](C)[C@@](O)(O2)C(=O)C(=O)N2CCCC[C@H]2C(=O)O[C@H]([C@H](C)C[C@@H]2CC[C@@H](OCCO)[C@H](OC)C2)CC(=O)[C@H](C)/C=C(\C)[C@@H](O)[C@@H](OC)C(=O)[C@H](C)C[C@H](C)/C=C/C=C/C=C/1C` : reported pEC50 = ?
5.05

Entry O=C1CN2Cc3c(ccc(Cl)c3Cl)N=C2N1 [Anagrelide HCl] : reported pEC50 = ?
7.40

Entry COc1c(C)c2c(c(O)c1C/C=C(\C)CCC(=O)OCCN1CCOCC1)C(=O)OC2 [Mycophenolate mofetil] : reported pEC50 = ?
5.66

Entry CCC[C@@H]1C[C@@H](C(=O)N[C@@H]([C@H]2O[C@H](SC)[C@H](O)[C@@H](O)[C@H]2O)[C@@H](C)O)N(C)C1 [Lincomycin hydrochloride] : reported pEC50 = ?
6.00

Entry CC(=O)[C@]1(O)Cc2c(O)c3c(c(O)c2[C@@H](O[C@H]2C[C@H](N)[C@H](O)[C@H](C)O2)C1)C(=O)c1ccccc1C3=O [Idarubicin HCl] : reported pEC50 = ?
6.15

Entry `CC[C@]1(O)C[C@H]2CN(CCc3c([nH]c4ccccc34)[C@@](C(=O)OC)(c3cc4c(cc3OC)N(C=O)[C@H]3[C@@](O)(C(=O)OC)[C@H](OC(C)=O)[C@]5(CC)C=CCN6CC[C@]43[C@@H]65)C2)C1` : reported pEC50 = ?
7.52

Entry COc1cc([C@@H]2c3cc4c(cc3[C@@H](O[C@@H]3O[C@@H]5CO[C@@H](c6cccs6)O[C@H]5[C@H](O)[C@H]3O)[C@H]3COC(=O)[C@H]23)OCO4)cc(OC)c1O [Teniposide] : reported pEC50 = ?
5.29
